- methodSummary: in vivo
- conditionLabel: male, Crl:CD (SD), rat, iv, 5 mg/kg
Starred links: 1 amine or outer side, 2 acyl side, 3 side chain; linkers in the order of their positions; H or OH if unused. Non-standard residues stand in square brackets, D forms with d. Residues, ends and D or L forms follow the SMILES beside them. ξ: configuration not given here. Oic = O=C(O)[C@@H]1C[C@@H]2CCCC[C@@H]2N1; GABOB(3R) = O=C(C[C@@H](O)CN[*:1])[*:2]; tBuAla = CC(C)(C)C[C@H](N)C(=O)O; ξVal(3-OH) = CC(C)(O)C(N)C(=O)O; 4Amb = NCc1ccc(C(=O)O)cc1

molecule	level at 0.5 h (ng/mL)
CC(C)(C)C[C@@H]1NC(=O)C[C@@H](O)CNC(=O)[C@@H]2C[C@@H]3CCCC[C@@H]3N2C(=O)[C@H](CC(C)(C)C)NC(=O)c2ccc(cc2)CNC(=O)C(C(C)(C)O)NC(=O)[C@@H](Cc2ccccc2)NC1=O (stereo partly drawn) [compound 109] (cyclo([4Amb][tBuAla][Oic][GABOB(3R)][tBuAla][dF][ξVal(3-OH)]))	2550

* * *

- methodSummary: Pharmacokinetic studies in rats
- conditionLabel: male, Crl:CD (SD), rat, in vivo, iv, 5 mg/kg
Starred links: 1 amine or outer side, 2 acyl side, 3 side chain; linkers in the order of their positions; H or OH if unused. Non-standard residues stand in square brackets, D forms with d. Residues, ends and D or L forms follow the SMILES beside them. ξ: configuration not given here. Oic = O=C(O)[C@@H]1C[C@@H]2CCCC[C@@H]2N1; GABOB(3R) = O=C(C[C@@H](O)CN[*:1])[*:2]; tBuAla = CC(C)(C)C[C@H](N)C(=O)O; ξVal(3-OH) = CC(C)(O)C(N)C(=O)O; 4Amb = NCc1ccc(C(=O)O)cc1

compound	Vd [L/kg]
CC(C)(C)C[C@@H]1NC(=O)C[C@@H](O)CNC(=O)[C@@H]2C[C@@H]3CCCC[C@@H]3N2C(=O)[C@H](CC(C)(C)C)NC(=O)c2ccc(cc2)CNC(=O)C(C(C)(C)O)NC(=O)[C@@H](Cc2ccccc2)NC1=O (stereo partly drawn) [compound 109] (cyclo([4Amb][tBuAla][Oic][GABOB(3R)][tBuAla][dF][ξVal(3-OH)]))	3.1

* * *

- methodSummary: in vivo
- conditionLabel: male, Crl:CD (SD), rat, iv, 5 mg/kg
Starred links: 1 amine or outer side, 2 acyl side, 3 side chain; linkers in the order of their positions; H or OH if unused. Non-standard residues stand in square brackets, D forms with d. Residues, ends and D or L forms follow the SMILES beside them. ξ: configuration not given here. Oic = O=C(O)[C@@H]1C[C@@H]2CCCC[C@@H]2N1; GABOB(3R) = O=C(C[C@@H](O)CN[*:1])[*:2]; tBuAla = CC(C)(C)C[C@H](N)C(=O)O; ξVal(3-OH) = CC(C)(O)C(N)C(=O)O; 4Amb = NCc1ccc(C(=O)O)cc1
recordedMetric: level at 6 h (ng/mL)

molecule	experimentalResult
CC(C)(C)C[C@@H]1NC(=O)C[C@@H](O)CNC(=O)[C@@H]2C[C@@H]3CCCC[C@@H]3N2C(=O)[C@H](CC(C)(C)C)NC(=O)c2ccc(cc2)CNC(=O)C(C(C)(C)O)NC(=O)[C@@H](Cc2ccccc2)NC1=O (stereo partly drawn) [compound 109] (cyclo([4Amb][tBuAla][Oic][GABOB(3R)][tBuAla][dF][ξVal(3-OH)]))	66.3

Cited source for all entries: paper PMC12627862
